Data origin, for the record: paper PMC7006651

# Target or system: human PPARγ (Homo sapiens)
# Sequence (P37231 238-503 limits assumed): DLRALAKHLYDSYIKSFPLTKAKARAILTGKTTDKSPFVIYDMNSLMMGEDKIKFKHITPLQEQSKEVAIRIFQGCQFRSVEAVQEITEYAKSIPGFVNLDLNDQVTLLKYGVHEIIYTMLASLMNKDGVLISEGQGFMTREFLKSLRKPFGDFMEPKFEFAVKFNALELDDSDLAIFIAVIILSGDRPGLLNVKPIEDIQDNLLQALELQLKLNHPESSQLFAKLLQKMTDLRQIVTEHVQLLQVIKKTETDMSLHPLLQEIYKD
# Assay summary: Gene reporter (transactivation) assay, Cos-7 cells transfected with pGal4-hPPARγ
# Test conditions: GAL4 chimeric hPPARγ, Cos-7 cells, 24 h; read-out: hPPAR gene reporter γEC50
Property label: log10 EC50 (log10 of the value in nM)

>>> print(df.to_string())
                                    compound            target_or_system  numeric_value
 0  CCO[C@@H](Cc1ccc(OCCn2c(=O)sc3cc(/C(=N/O)c4ccccc4)ccc32)cc1)C(=O)O [Compound 43a]  human PPARγ (Homo sapiens)           1.20
 1  CCOC(Cc1ccc(OCCn2c(=O)sc3ccc(C(=O)c4ccccc4)cc32)cc1)C(=O)O (stereo not shown)  human PPARγ (Homo sapiens)           1.79
 2  CCO[C@H](Cc1ccc(OCCn2c(=O)sc3cc(C(=O)c4ccccc4)ccc32)cc1)C(=O)O [Compound 42a]  human PPARγ (Homo sapiens)           2.48
 3  CCOC(Cc1ccc(OCCN2C(=O)CSc3cc(C(=O)c4ccccc4)ccc32)cc1)C(=O)O (stereo not shown)  human PPARγ (Homo sapiens)           1.57
 4  CCO[C@H](Cc1ccc(OCCn2c(=O)sc3cc(/C(=N/O)c4ccccc4)ccc32)cc1)C(=O)O [Compound 45a]  human PPARγ (Homo sapiens)           2.90
 5  CON=C(c1ccccc1)c1ccc2c(c1)sc(=O)n2CCOc1ccc(C[C@@H](OCC(F)(F)F)C(=O)O)cc1 [Compound 46b]  human PPARγ (Homo sapiens)           0.95
 6  CON=C(c1ccccc1)c1ccc2c(c1)sc(=O)n2CCOc1ccc(CC(OCC(F)(F)F)C(=O)O)cc1 (racemic) [Compound 40b]  human PPARγ (Homo sapiens)           0.85
 7  CCOC(Cc1ccc(OCCN2C(=O)C(F)(F)c3cc(C(=O)c4ccccc4)ccc32)cc1)C(=O)O (stereo not shown)  human PPARγ (Homo sapiens)           0.70
 8  CCO[C@@H](Cc1ccc(OCCn2c(=O)sc3cc(/C(=N/OC)c4ccccc4)ccc32)cc1)C(=O)O [Compound 44a]  human PPARγ (Homo sapiens)           0.30
 9  CCOC(Cc1ccc(OCCn2c(=O)sc3cc(/C(=N/OC)c4ccccc4)ccc32)cc1)C(=O)O (stereo not shown) [Compound 40a]  human PPARγ (Homo sapiens)           0.30
10  CCOC(Cc1ccc(OCCN2C(=O)COc3cc(C(=O)c4ccccc4)ccc32)cc1)C(=O)O (stereo not shown)  human PPARγ (Homo sapiens)           1.90
11  CCOC(Cc1ccc(OCCn2c(=O)sc3cc(/C(=N/O)c4ccccc4)ccc32)cc1)C(=O)O (stereo not shown) [Compound 39a]  human PPARγ (Homo sapiens)           1.38
12  CON=C(c1ccccc1)c1ccc2c(c1)sc(=O)n2CCOc1ccc(C[C@H](OCC(F)(F)F)C(=O)O)cc1 [Compound 44b]  human PPARγ (Homo sapiens)          -0.05

###

Entries and their measured Emax follow.
# Target or system: human PPARγ (Homo sapiens)
# Construct: expressed in transfected cells; host or cells: Cos-7
# Sequence (P37231 238-503 limits assumed): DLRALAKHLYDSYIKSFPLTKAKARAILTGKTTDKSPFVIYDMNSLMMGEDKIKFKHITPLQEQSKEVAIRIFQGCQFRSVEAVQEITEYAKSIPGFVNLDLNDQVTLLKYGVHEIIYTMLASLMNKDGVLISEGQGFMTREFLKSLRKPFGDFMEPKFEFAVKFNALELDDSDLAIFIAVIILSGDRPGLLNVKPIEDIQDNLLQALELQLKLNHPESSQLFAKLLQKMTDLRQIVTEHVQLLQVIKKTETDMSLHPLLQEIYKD
# Assay summary: Gene reporter (transactivation) assay, Cos-7 cells transfected with pGal4-hPPARγ
# Format: cell-based
# Test conditions: COS-7, 24 h, Emax relative to maximum activation with rosiglitazone (1 μM) = 100%; Cos-7 cells, 24 h; read-out: hPPAR gene reporter γGal4 (%)
Property label: Emax (%)

>>> print(df.to_string())
                                   compound            target_or_system  comparison_operator  numeric_value
0  CCO[C@H](Cc1ccc(OCCn2c(=O)sc3cc(/C(=N/O)c4ccccc4)ccc32)cc1)C(=O)O [Compound 45a]  human PPARγ (Homo sapiens)                    =             66
1  CCO[C@@H](Cc1ccc(OCCn2c(=O)sc3cc(/C(=N/OC)c4ccccc4)ccc32)cc1)C(=O)O [Compound 44a]  human PPARγ (Homo sapiens)                    =            115
2  O=C(O)C(Cc1ccc(OCCn2c(=O)sc3cc(C(=NO)c4ccccc4)ccc32)cc1)OCC(F)(F)F (mixture of isomers) [Compound 39b]  human PPARγ (Homo sapiens)                    =             44
3  CCOC(Cc1ccc(OCCN2C(=O)Cc3cc(C(=O)c4ccccc4)ccc32)cc1)C(=O)O (stereo not shown)  human PPARγ (Homo sapiens)                    ≤             75
4  CCOC(Cc1ccc(OCCN2C(=O)C(F)(F)c3cc(C(=O)c4ccccc4)ccc32)cc1)C(=O)O (stereo not shown)  human PPARγ (Homo sapiens)                    ≤             75
5  CCOC(Cc1ccc(OCCn2c(=O)sc3cc(C(=O)c4ccccc4)ccc32)cc1)C(=O)O (stereo not shown) [Compound 32a]  human PPARγ (Homo sapiens)                    ≥             80
6  CCOC(Cc1ccc(OCCN2C(=O)COc3cc(C(=O)c4ccccc4)ccc32)cc1)C(=O)O (stereo not shown)  human PPARγ (Homo sapiens)                    >            100

###

# Target or system: human PPARγ (Homo sapiens, UniProt P37231)
# Assay summary: Gene reporter (transactivation) assay, Cos-7 cells transfected with pGal4-hPPARγ;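 note: luciferase reporter (pG5-TK) activity normalised to cotransfected β-galactosidase, cells exposed to increasing compound concentrations in DMEM with 0.2% FCS, DMSO vehicle as control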
# Test conditions: GAL4 chimeric hPPARγ, Cos-7 cells, 24 h; read-out: hPPAR gene reporter γEC50
pEC50: −log10 of the molar value.
Property label: pEC50

In [3]: df
Out[3]:
                                   compound  numeric_value
0  O=C(O)C(Cc1ccc(OCCn2c(=O)sc3cc(C(=NO)c4ccccc4)ccc32)cc1)OCC(F)(F)F (mixture of isomers) [Compound 39b]           8.00
1  CCOC(Cc1ccc(OCCN2C(=O)COc3ccc(C(=O)c4ccccc4)cc32)cc1)C(=O)O (stereo not shown)           8.70
2  CCO[C@@H](Cc1ccc(OCCn2c(=O)sc3cc(C(=O)c4ccccc4)ccc32)cc1)C(=O)O [Compound 41a]           8.10
3  CCOC(Cc1ccc(OCCN2C(=O)CSc3ccc(C(=O)c4ccccc4)cc32)cc1)C(=O)O (stereo not shown)           6.66
4  CCOC(Cc1ccc(OCCN2C(=O)Cc3cc(C(=O)c4ccccc4)ccc32)cc1)C(=O)O (stereo not shown)           7.40
5  CCO[C@H](Cc1ccc(OCCn2c(=O)sc3cc(/C(=N/OC)c4ccccc4)ccc32)cc1)C(=O)O [Compound 46a]           6.25
6  CCOC(Cc1ccc(OCCn2c(=O)sc3cc(C(=O)c4ccccc4)ccc32)cc1)C(=O)O (stereo not shown) [Compound 32a]           7.82

###

# Target or system: human PPARα (Homo sapiens)
# Construct: expressed in transfected cells; host or cells: Cos-7
# Sequence (Q07869 239-466 limits assumed): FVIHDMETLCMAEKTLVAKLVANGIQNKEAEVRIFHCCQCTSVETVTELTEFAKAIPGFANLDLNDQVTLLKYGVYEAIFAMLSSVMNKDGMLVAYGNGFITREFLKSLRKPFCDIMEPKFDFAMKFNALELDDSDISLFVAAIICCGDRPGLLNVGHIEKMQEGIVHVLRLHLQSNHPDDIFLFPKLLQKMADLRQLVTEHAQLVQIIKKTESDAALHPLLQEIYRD
# Assay summary: Gene reporter (transactivation) assay, Cos-7 cells transfected with pGal4-hPPARα;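 note: luciferase signal from a Gal4-driven reporter normalised to cotransfected β-galactosidase activity, cells exposed to rising compound concentrations with DMSO vehicle as control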
# Format: cell-based
# Test conditions: COS-7, 24 h, Emax relative to maximum activation with WY14643 (10 µM) = 100%, read-out: hPPAR gene reporter αGal4 (%)
Property label: Emax (%)

                                   compound  property_label  unit_of_measurement  comparison_operator  numeric_value
0  CCO[C@H](Cc1ccc(OCCn2c(=O)sc3cc(/C(=N/OC)c4ccccc4)ccc32)cc1)C(=O)O [Compound 46a]            Emax                    %                    =            124
1  CCOC(Cc1ccc(OCCn2c(=O)sc3ccc(C(=O)c4ccccc4)cc32)cc1)C(=O)O (stereo not shown)            Emax                    %                    ≥             80
2  CCOC(Cc1ccc(OCCN2C(=O)COc3cc(C(=O)c4ccccc4)ccc32)cc1)C(=O)O (stereo not shown)            Emax                    %                    =             80
3  CCOC(Cc1ccc(OCCN2C(=O)C(F)(F)c3cc(C(=O)c4ccccc4)ccc32)cc1)C(=O)O (stereo not shown)            Emax                    %                    =             89
